# Target Desc: Beta-2 adrenergic receptor (Homo sapiens)
# Test Description: Adrenergic beta2 receptor (ADRB2) small molecule antagonists, cell-based qHTS assay (AID 1963592); further: nearly all actives have a fitted effect of over 50% in size
# Condition Description: CHO-ADRB2 cells, isoproterenol-stimulated cAMP HTRF ratio, 0.5 h; series mostly up to 92.4 µM
Results filed as inconclusive are left out. Active and inactive are the calls of the source. The call rests on the fitted dose curve.
Assay Readout: outcome

Some solved entries appear below for comparison.
C=CCN=C=S : inactive
CSc1nc(NC(C)C)nc(NC(C)C)n1 : inactive
NC(=O)CF : inactive
N#Cc1c(Cl)c(Cl)c(Cl)c(C#N)c1Cl : inactive
CCCCCCn1cc[n+](C)c1 : inactive

[ask] Returns the measured outcome for the input molecule. Input: OCC(Br)CBr (stereo not drawn)
[reply] inactive

[ask] Moving on to "COC(=O)Nc1cccc(OC(=O)Nc2cccc(C)c2)c1"
[reply] inactive

[ask] "O=c1[nH]c(=O)[nH]c(=O)[nH]1" ?
[reply] inactive

[ask] Next entry: "N#CN=C(N)N"
[reply] inactive

[ask] # repeat for O=C1C2CC=CCC2C(=O)N1SC(Cl)(Cl)Cl (stereo not drawn)
[reply] inactive

[ask] Check "ClCc1ccccn1" too.
[reply] inactive

[ask] Now give it for "CNC(=O)Oc1cccc2ccccc12" too.
[reply] inactive

[ask] Could you do the same for "O=C/C(Cl)=C(/Cl)C(=O)O" , please?
[reply] inactive

[ask] Would you kindly repeat that for "CC[N+]1(C)CCCC1" ?
[reply] inactive

[ask] Subsequent entry: "CCCCCCCCSC(=O)Oc1cc(Cl)nnc1-c1ccccc1"
[reply] inactive

[ask] Same question for "Cl/C=C/CCl" please.
[reply] inactive

[ask] Can you check "[O-][Cl+]O" next?
[reply] inactive

[ask] Would you mind doing "[N-]=[N+]=[N-]" as well?
[reply] inactive

[ask] Try this molecule too: "CCC(Br)(CC)C(=O)NC(N)=O"
[reply] inactive

[ask] Consider next the molecule "CCC(C)(CC)c1cc(NC(=O)c2c(OC)cccc2OC)on1" in the same way.
[reply] inactive

[ask] // same read-out, input: CC1COC2(c3ccccc3Cl)c3cc(Cl)ccc3NC(=O)CN12 (stereo not drawn)
[reply] inactive

[ask] Next molecule: "CCCCCCCCCCCCOS(=O)(=O)O"
[reply] inactive

[ask] Please give the result for "CC[N+](=O)[O-]" too.
[reply] inactive

[ask] Would you mind doing "OCc1ccco1" as well?
[reply] inactive

[ask] Item: "CC(C)(C)OOC(C)(C)CCC(C)(C)OOC(C)(C)C"
[reply] inactive
